Below: a set of entries, each annotated with reported koff.
- TARGET SYSTEM: T1, His-tagged human TIGIT (human, UniProt Q495A1 22-141)
- T1 construct: SPR analyte; also called human TIGIT protein; not shown: His tag
- T1 sequence: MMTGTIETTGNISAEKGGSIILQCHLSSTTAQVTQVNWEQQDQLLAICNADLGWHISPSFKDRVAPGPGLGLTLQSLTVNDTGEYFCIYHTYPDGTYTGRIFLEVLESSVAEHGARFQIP
- PROTOCOL: SPR experiment 3, IgG from HEK293 supernatant captured
The response must be a number in s⁻¹ with no trailing unit.

Previously resolved entries follow.
BINDER	koff (s⁻¹)
reshaped TIGIT-3 antibody 3VH3 + 3VL1 (antibody, V domains shown, Full-length IgG, tested as HEK293 supernatant) VH: EVQLVESGGGLVQPGGSLRLSCAASGFTFSSYGMSWVRQAPGKGLELVATIKSDGGSTNLPDSVKGRFTISRDNSKNTLYLQMNSLRAEDTAVYYCVRGYFDYWGQGTTVTVSS VL: DIQMTQSPSSLSASVGDRVTITCKASQDVKTAVAWYQQKPGKVPKLLIYWSSTRHTGVPSRFSGSGSGTDFTLTISSLQPEDVATYYCQQYYSTPYTFGGGTKVEIK	0.0076
reshaped TIGIT-3 antibody 3VH3 + 3VL1.M1 (antibody, V domains shown, Full-length IgG, tested as HEK293 supernatant) VH: EVQLVESGGGLVQPGGSLRLSCAASGFTFSSYGMSWVRQAPGKGLELVATIKSDGGSTNLPDSVKGRFTISRDNSKNTLYLQMNSLRAEDTAVYYCVRGYFDYWGQGTTVTVSS VL: DIQMTQSPSSLSASVGDRVTITCRASQDIKTALAWYQQKPGKVPKLLIYWSSTRHTGVPSRFSGSGSGTDFTLTISSLQPEDVATYYCQQYYSTPYTFGGGTKVEIK	0.0038

Could you now look at the following binder, please?
Q: # return recorded koff for input reshaped TIGIT-3 antibody 3VH3 + 3VL1.M3 (antibody, V domains shown, Full-length IgG, tested as HEK293 supernatant) VH: EVQLVESGGGLVQPGGSLRLSCAASGFTFSSYGMSWVRQAPGKGLELVATIKSDGGSTNLPDSVKGRFTISRDNSKNTLYLQMNSLRAEDTAVYYCVRGYFDYWGQGTTVTVSS VL: DIQMTQSPSSLSASVGDRVTITCKASQDVKTAVAWYQQKPGKVPKLLIYWASTRHSGVPSRFSGSGSGTDFTLTISSLQPEDVATYYCQQYYSTPYTFGGGTKVEIK
A: 0.0089
